For each of the compounds below, state its IC50.
target: CDK4/cyclin D3 (Homo sapiens); assay: Human CDK4/cyclin D3 inhibitory activity (QS S Assist CDK4/Cyclin D3_FP Kit, IMAP fluorescent polarization); details: read-out: CDK4 Activity symbol
Sequence (P11802 whole entry): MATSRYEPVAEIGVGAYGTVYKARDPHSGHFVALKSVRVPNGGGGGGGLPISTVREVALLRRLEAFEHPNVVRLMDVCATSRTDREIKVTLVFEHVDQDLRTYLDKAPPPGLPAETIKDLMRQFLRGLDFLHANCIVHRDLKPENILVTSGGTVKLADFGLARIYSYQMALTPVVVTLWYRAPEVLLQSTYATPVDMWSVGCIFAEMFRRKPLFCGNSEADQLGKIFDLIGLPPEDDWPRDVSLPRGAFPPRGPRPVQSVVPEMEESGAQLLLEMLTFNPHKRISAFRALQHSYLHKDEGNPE
Sequence (P30281 whole entry partner): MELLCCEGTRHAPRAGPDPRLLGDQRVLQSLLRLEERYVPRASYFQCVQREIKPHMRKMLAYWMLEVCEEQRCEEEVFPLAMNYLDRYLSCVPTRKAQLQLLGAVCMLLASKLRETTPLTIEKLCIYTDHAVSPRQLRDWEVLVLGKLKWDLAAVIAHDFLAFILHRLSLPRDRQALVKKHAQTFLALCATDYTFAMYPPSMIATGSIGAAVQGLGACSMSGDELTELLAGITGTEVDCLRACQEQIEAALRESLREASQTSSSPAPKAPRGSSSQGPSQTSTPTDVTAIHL

Use these answered entries as a reference point.
>  <COMPOUND>
C[C@@H](O)c1cc2cnc(Nc3ccc4c(n3)CCN(C(=O)[C@@H]3CCCNC3)C4)nc2c(N2CCCCC2)n1 [Compound 214]

>  <PROPERTY_MEASURED>
IC50

>  <RESULT>
< 10 nM

$$$$
>  <COMPOUND>
C[C@@H](O)c1cc2cnc(Nc3ccc4c(n3)CCN(C(=O)Cn3cccn3)C4)nc2c(N2CCCCC2)n1 [Compound 331]

>  <PROPERTY_MEASURED>
IC50

>  <RESULT>
10 to 100 nM

$$$$
>  <COMPOUND>
C[C@@H](O)c1cc2cnc(Nc3ccc(CN4CCN(CCO)CC4)cn3)nc2c(N2CC3(CCC3)C2)n1 [Compound 57]

>  <PROPERTY_MEASURED>
IC50

>  <RESULT>
< 10 nM

$$$$
>  <COMPOUND>
C[C@@H](O)c1cc2cnc(Nc3ccc(CN4CCN(C)CC4)cn3)nc2c(N2CCCOCC2)n1 [Compound 177]

>  <PROPERTY_MEASURED>
IC50

>  <RESULT>
< 10 nM

$$$$
>  <COMPOUND>
C[C@@H](O)c1cc2cnc(Nc3ccc(CN4CCN(C)CC4)cn3)nc2c(N2CCOCC2)n1 [Compound 145]

>  <PROPERTY_MEASURED>
IC50

>  <RESULT>
10 to 100 nM

$$$$
>  <COMPOUND>
C[C@@H](O)c1cc2cnc(Nc3ccc(N4CCN(CCS(C)(=O)=O)CC4)nn3)nc2c(N2CCCCC2)n1 [Compound 114]

>  <PROPERTY_MEASURED>
IC50

>  <RESULT>
< 10 nM

$$$$

In the following, a different compound is considered.
Need IC50 of OCc1cc2cnc(Nc3ccc(N4CCNCC4)cn3)nc2c(N2CCCCC2)n1 [Compound 9] , thanks.
< 10 nM

---

biological target: CDK2/cyclin A2 (Homo sapiens); experiment: Human CDK2/cyclin A2 inhibitory activity (QS S Assist CDK2/Cyclin A2_FP Kit, IMAP fluorescent polarization); conditions: read-out: CDK2 Activity symbol
Hi there, I'd appreciate the recorded IC50 for every entry that follows.

Some molecules with known IC50 results, for comparison:
>  <MOLECULE>
CC1CCC(C)N1c1nc([C@@H](C)O)cc2cnc(Nc3ccc(CN4CCN(CCO)CC4)cn3)nc12 (stereo partly shown)

>  <IC50>
≥ 100 nM

$$$$
>  <MOLECULE>
C[C@@H](O)c1cc2cnc(Nc3ccc4c(n3)CCN(C(=O)[C@@H]3CCN(C)C3)C4)nc2c(N2C3CCC2CC3)n1

>  <IC50>
≥ 100 nM

$$$$
>  <MOLECULE>
C[C@@H](O)c1cc2cnc(Nc3ccc(N4CCCNCC4=O)cn3)nc2c(N2CCCCCC2)n1

>  <IC50>
10 to 100 nM

$$$$

Which IC50 is listed for C[C@@H](O)c1cc2cnc(Nc3ccc(CN4CCC(CO)CC4)cn3)nc2c(N2CCOCC2)n1 ?
≥ 100 nM
